Hi there, I'd appreciate the recorded MIC for every entry that follows.
Test system: Candida albicans
Experiment: Antimicrobial activity against Candida albicans MTCC 3017 assessed as inhibition zone measured after 24 hrs incubation by well diffusion method
Format: functional

What measured MIC is associated with CCOC(=O)C1(C#N)Oc2c(c(=O)oc3ccccc23)C1c1ccc([N+](=O)[O-])cc1 (stereo not given) on Candida albicans? > 250 µg/mL

What measured MIC is associated with Clc1ccc(COC(Cn2ccnc2)c2ccc(Cl)cc2Cl)c(Cl)c1 (stereo not given) on Candida albicans? 7.8 µg/mL

What measured MIC is associated with CC(C)OC(=O)C1(C#N)Oc2c(c(=O)oc3ccccc23)C1c1ccccc1 (stereo not given) on Candida albicans? > 250 µg/mL

What measured MIC is associated with COC(=O)C1(C#N)Oc2c(c(=O)oc3ccccc23)C1c1ccc(Br)cc1 (stereo not given) on Candida albicans? > 250 µg/mL

What measured MIC is associated with COC(=O)C1(C#N)Oc2c(c(=O)oc3ccccc23)C1c1ccc(F)cc1 (stereo not given) on Candida albicans? 62.5 µg/mL

What measured MIC is associated with COC(=O)C1(C#N)Oc2c(c(=O)oc3ccccc23)C1c1ccc(C#N)cc1 (stereo not given) on Candida albicans? > 250 µg/mL

What measured MIC is associated with CCOC(=O)C1(C#N)Oc2c(c(=O)oc3ccccc23)C1c1cccc2ccccc12 (stereo not given) on Candida albicans? > 250 µg/mL

What measured MIC is associated with COC(=O)C1(C#N)Oc2c(c(=O)oc3ccccc23)C1c1ccc(Cl)cc1 (stereo not given) on Candida albicans? > 250 µg/mL

What measured MIC is associated with CCOC(=O)C1(C#N)Oc2c(c(=O)oc3ccccc23)C1c1ccccc1 (stereo not given) on Candida albicans? > 250 µg/mL

What measured MIC is associated with CCOC(=O)C1(C#N)Oc2c(c(=O)oc3ccc(C)cc23)C1c1ccccc1 (stereo not given) on Candida albicans? > 250 µg/mL

----------
Hi there, I'd appreciate the recorded MIC for every entry that follows.
System: Escherichia coli
Test: Antimicrobial activity against Escherichia coli MTCC 739 assessed as inhibition zone measured after 24 hrs incubation by well diffusion method
Assay type: functional

Look up MIC: CCOC(=O)C1(C#N)Oc2c(c(=O)oc3ccccc23)C1c1cccc2ccccc12 (stereo not given) > 250 µg/mL

Look up MIC: CCOC(=O)C1(C#N)Oc2c(c(=O)oc3ccccc23)C1c1ccccc1 (stereo not given) > 250 µg/mL

Look up MIC: COC(=O)C1(C#N)Oc2c(c(=O)oc3ccccc23)C1c1ccc(Br)cc1 (stereo not given) 12.5 µg/mL

Look up MIC: COC(=O)C1(C#N)Oc2c(c(=O)oc3ccccc23)C1c1ccc(Cl)cc1Cl (stereo not given) > 250 µg/mL

Look up MIC: COC(=O)C1(C#N)Oc2c(c(=O)oc3ccccc23)C1c1ccc(C(F)(F)F)cc1 (stereo not given) > 250 µg/mL

Look up MIC: COC(=O)C1(C#N)Oc2c(c(=O)oc3ccccc23)C1c1ccc(C)cc1 (stereo not given) > 250 µg/mL

Look up MIC: COC(=O)C1(C#N)Oc2c(c(=O)oc3ccccc23)C1c1ccc(F)cc1 (stereo not given) 15.6 µg/mL

Look up MIC: COC(=O)C1(C#N)Oc2c(c(=O)oc3ccccc23)C1c1ccc([N+](=O)[O-])cc1 (stereo not given) > 250 µg/mL

Look up MIC: CCOC(=O)C1(C#N)Oc2c(c(=O)oc3ccccc23)C1c1ccc([N+](=O)[O-])cc1 (stereo not given) > 250 µg/mL

Look up MIC: CCOC(=O)C1(C#N)Oc2c(c(=O)oc3ccc(C)cc23)C1c1ccccc1 (stereo not given) > 250 µg/mL

Look up MIC: COC(=O)C1(C#N)Oc2c(c(=O)oc3ccc(C)cc23)C1c1ccccc1 (stereo not given) > 250 µg/mL

Look up MIC: COC(=O)C1(C#N)Oc2c(c(=O)oc3ccccc23)C1c1ccc(C#N)cc1 (stereo not given) > 250 µg/mL

Look up MIC: CC(C)OC(=O)C1(C#N)Oc2c(c(=O)oc3ccccc23)C1c1ccccc1 (stereo not given) > 250 µg/mL

Look up MIC: COC(=O)C1(C#N)Oc2c(c(=O)oc3ccccc23)C1c1cc(OC)c(OC)c(OC)c1 (stereo not given) > 250 µg/mL

Look up MIC: COC(=O)C1(C#N)Oc2c(c(=O)oc3ccccc23)C1c1ccc(Cl)cc1 (stereo not given) 62.5 µg/mL

Look up MIC: `O=C(O)c1cn(C2CC2)c2cc(N3CCNCC3)c(F)cc2c1=O` 0.9 µg/mL

Look up MIC: COC(=O)C1(C#N)Oc2c(c(=O)oc3ccccc23)C1c1ccc(O)cc1 (stereo not given) > 250 µg/mL

Look up MIC: COC(=O)C1(C#N)Oc2c(c(=O)oc3ccccc23)C1c1ccccc1 (stereo not given) > 250 µg/mL

Look up MIC: CCOC(=O)C1(C#N)Oc2c(c(=O)oc3ccccc23)C1c1ccc(C(F)(F)F)cc1 (stereo not given) > 250 µg/mL
